Ref: patent US6344321

Assay System: HGF (hepatocyte growth factor/scatter factor) (UniProt P14210;P14210 P14210:32-494,P14210:495-728)
Sequence (P14210 32-494, chain 1 of 2): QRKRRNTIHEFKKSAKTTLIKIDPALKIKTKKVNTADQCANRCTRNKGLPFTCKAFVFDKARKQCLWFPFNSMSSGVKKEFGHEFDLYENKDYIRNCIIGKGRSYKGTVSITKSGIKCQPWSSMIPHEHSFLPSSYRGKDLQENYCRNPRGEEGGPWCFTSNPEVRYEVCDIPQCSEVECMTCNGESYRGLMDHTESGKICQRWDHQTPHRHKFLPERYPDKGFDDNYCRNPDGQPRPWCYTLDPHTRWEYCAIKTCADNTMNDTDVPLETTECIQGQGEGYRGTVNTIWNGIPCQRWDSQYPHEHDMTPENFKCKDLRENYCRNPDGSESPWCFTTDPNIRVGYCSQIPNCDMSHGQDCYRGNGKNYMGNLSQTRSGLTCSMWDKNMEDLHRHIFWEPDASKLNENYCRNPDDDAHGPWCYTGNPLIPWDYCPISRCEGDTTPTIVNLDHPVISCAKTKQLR
Sequence (P14210 495-728, chain 2 of 2): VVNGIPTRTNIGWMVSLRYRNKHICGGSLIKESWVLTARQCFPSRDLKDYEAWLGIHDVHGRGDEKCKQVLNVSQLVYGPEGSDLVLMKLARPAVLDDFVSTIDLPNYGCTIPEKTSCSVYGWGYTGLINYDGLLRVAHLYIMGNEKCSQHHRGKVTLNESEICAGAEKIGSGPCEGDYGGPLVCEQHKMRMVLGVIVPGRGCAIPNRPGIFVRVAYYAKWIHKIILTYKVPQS
Protocol Details: filter; 40N8 hitchhiker
Condition Info: tags: R&D Systems

{"Binder": "10-4 (ssRNA, 2'-F pyrimidines) RNA: GGGAGAUAAGAAUAAACGCUCAAUUGGGUCGGGACUCGAAAGGAUUUGAUAGGAUACAUGAAUUUCGACAGGAGGCUCACAACAGGC", "Kd [nM]": 0.61}
{"Binder": "10-38 (ssRNA, 2'-F pyrimidines) RNA: GGGAGAUAAGAAUAAACGCUCAAUCUGCGGACGGUGAGGUUAAGUUGCAACGACUGCUUGGCGUUCGACAGGAGGCUCACAACAGGC", "Kd [nM]": 7.38}
{"Binder": "10-35 (ssRNA, 2'-F pyrimidines) RNA: GGGAGAUAAGAAUAAACGCUCAAAUCCAAAUUCUGGUCAUGAGGCGCUGCAGAUACUGCUGCGUUCGACAGGAGGCUCACAACAGGC", "Kd [nM]": 2.33}
{"Binder": "10-67 (ssRNA, 2'-F pyrimidines) RNA: GGGAGAUAAGAAUAAACGCUCAAUCGGGCUUGGAUGUGGACGUGUAUUUCUAGCUGUGUACGCUUCGACAGGAGGCUCACAACAGGC", "Kd [nM]": 0.64}
{"Binder": "10-56 (ssRNA, 2'-F pyrimidines) RNA: GGGAGAUAAGAAUAAACGCUCAACCUUAGGGCUCCCAAAAAUCGGGCCCGUCGGGCCGAUCACUUCGACAGGAGGCUCACAACAGGC", "Kd [nM]": 0.28}
{"Binder": "10-68 (ssRNA, 2'-F pyrimidines) RNA: GGGAGAUAAGAAUAAACGCUCAACGCGGGAUUCUCUGAGGACGAGGCACGUGUGGGUAAUUCGUUCGACAGGAGGCUCACAACAGGC", "Kd [nM]": 1}
